SYSTEM: platelet P2Y1 receptor (Homo sapiens, UniProt P47900)
Construct: expressed in transfected cells
Sequence (P47900 whole entry): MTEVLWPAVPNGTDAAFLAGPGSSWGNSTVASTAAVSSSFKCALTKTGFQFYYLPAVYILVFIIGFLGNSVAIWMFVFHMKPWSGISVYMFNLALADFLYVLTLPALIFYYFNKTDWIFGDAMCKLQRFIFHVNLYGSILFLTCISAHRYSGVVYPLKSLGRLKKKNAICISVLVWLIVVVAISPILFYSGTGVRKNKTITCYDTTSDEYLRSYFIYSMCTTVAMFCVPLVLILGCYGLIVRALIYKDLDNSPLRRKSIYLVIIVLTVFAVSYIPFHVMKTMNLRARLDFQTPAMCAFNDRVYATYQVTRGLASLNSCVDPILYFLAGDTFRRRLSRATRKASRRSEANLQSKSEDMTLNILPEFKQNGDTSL
MEASUREMENT DESCRIPTION: P2Y1 receptor binding assay ([β-33P]-2-thiomethyl ADP)
TEST PARAMETERS: binding of 0.3 nM [β-33P]-2-thiomethyl ADP, hP2Y1 expressing 132N1 cell membrane, 25° C., 60 minutes
pIC50: −log10 of the molar value.
REPORTED ENDPOINT: pIC50

Observe how each entry below is paired with its result.
Cc1cc(Oc2ccccc2NC(=O)Nc2ccc(OC(F)(F)F)cc2)n(-c2cccc(Cl)c2F)n1 [Example 88] ... 6.83
Cc1cc(Oc2ccccc2NC(=O)Nc2ccc(-c3ccccc3)cc2)n(-c2ccccc2Cl)n1 [Example 96] ... 6.75
Cc1cc(Oc2ccccc2NC(=O)Nc2ccc(C3CC3)cc2)n(-c2ccccc2Cl)n1 [Example 123] ... 6.92
CCc1ccccc1-n1nc(C)cc1Oc1ccccc1NC(=O)Nc1ccc(C(F)(F)F)cc1F [Example 93] ... 6.91
Cc1cc(Oc2ccccc2NC(=O)Nc2ccc(Br)cc2)n(-c2ccccc2Cl)n1 [Example 126] ... 6.77

[a] CCc1ccccc1-n1nc(C)cc1Oc1ccccc1NC(=O)Nc1ccc(Cl)cc1 [Example 111]
[b] CCc1ccccc1-n1nc(C)cc1Oc1ccccc1NC(=O)Nc1ccc(C2CCCCC2)cc1 [Example 108]
[c] CCc1ccccc1-n1nc(C)cc1Oc1ccccc1NC(=O)Nc1ccc(C(F)(F)F)cc1 [Example 107]
[d] CCc1ccccc1-n1nc(C)cc1Oc1ccccc1NC(=O)Nc1ccc(OC)cc1 [Example 103]
[e] Cc1cc(Oc2ccccc2NC(=O)Nc2ccc(F)c(F)c2F)n(-c2ccccc2)n1 [Example 45]
Query: Ordering: ascending pIC50. Hello, could you send the labels back in the order asked? Thank you.
Response: e, d, a, c, b

---

SYSTEM: platelet P2Y1 receptor (Homo sapiens)
pIC50: −log10 of the molar value.
REPORTED ENDPOINT: pIC50

Cc1cc(Oc2ccccc2NC(=O)Nc2ccc(OC(F)(F)F)cc2)n(-c2ccc(C(C)(C)C)cc2)n1 [Example 97] ... 6.47
CCc1ccccc1-n1nc(C)cc1Oc1ccccc1NC(=O)Nc1ccc(-c2ccccc2)cc1 [Example 91] ... 7.06
O=C(Nc1ccc(OC(F)(F)F)cc1)Nc1ccccc1Oc1ccnn1-c1ccccc1Cl [Example 25] ... 6.57
CCc1ccccc1-n1nc(C)cc1Oc1ccccc1NC(=O)Nc1ccc(F)cc1F [Example 106] ... 6.54

[I] Cc1cc(Oc2ccccc2NC(=O)Nc2ccc(C(C)(C)C)cc2)n(-c2ccccc2)n1 [Example 12]
[II] CCc1ccccc1-n1nc(C)cc1Oc1ccccc1NC(=O)Nc1ccc(C#N)cc1 [Example 101]
Query: Smaller pIC50 value? Options are I and II Your answer should be the label attached to the chosen record.
Response: II
(II: 5.99, I: 6.68)

---

SYSTEM: platelet P2Y1 receptor (Homo sapiens, UniProt P47900)
REPORTED ENDPOINT: IC50 (µM)

Below, each entry is followed by its recorded IC50 result.
Cc1ccc(-n2nc(C)cc2Oc2ccccc2NC(=O)Nc2ccc(OC(F)(F)F)cc2)cc1 ... 0.188
CCc1ccccc1-n1nc(C)cc1Oc1ccccc1NC(=O)Nc1ccc(OC(F)(F)F)cc1 ... 0.048
Cc1cc(Oc2ccccc2NC(=O)Nc2ccc(C(C)(C)C)cc2)n(-c2ccccc2Cl)n1 ... 0.095

[1] Cc1cc(Oc2ccccc2NC(=O)Nc2ccc(OC(F)(F)F)cc2)n(-c2ccc(F)cc2)n1
[2] Cc1cc(Oc2ccccc2NC(=O)Nc2ccc(OC(F)(F)F)cc2)n(-c2cc(Cl)ccc2Cl)n1
[3] Cc1cc(Oc2ccccc2NC(=O)Nc2ccc(OC(F)(F)F)cc2)n(-c2ccc(Cl)cc2Cl)n1
Query: Form: Sort by [IC50] Order [ ascending ] I would appreciate it if you listed the labels in the requested order.
Response: 2, 3, 1
